Test system: P-gp
ASSAY NAME: Bidirectional permeability assay in Caco-2/HUVEC gut-on-chip
Assay type: cell-based, human
MEASUREMENT PARAMETERS: human, pH 7.4; Caco-2/HUVEC gut-on-chip, day 10; 10 µM; no inhibitor; read-out: efflux ratio, control
ASSAY METRIC: efflux ratio at 1 h, 10 µM

1) Cc1nnc2n1-c1sc(CCC(=O)N3CCOCC3)cc1C(c1ccccc1Cl)=NC2 ... 22.2

* * *

Measured Compound Loss Bottom Channel (%) of individual entries
ASSAY NAME: Compound loss (PDMS ad- and absorption) in cell-free organ-chips
Type: in vitro ADME
MEASUREMENT PARAMETERS: cell-free organ-chips; 10 µM per drug in cocktail; outlet vs inlet after one hour at 200 µL/h; mean of two experiments
Description: S-1® Organ-Chips from Emulate Inc. (Boston, MA, USA) comprise 2 parallel channels (top and bottom) for cell culture, which are superimposed and separated via a porous membrane, all made of polydimethylsiloxane (PDMS). The 50 µm thick membrane contains pores of a diameter of 7 µm, which are spaced 40 µm apart from each other. In addition, 2 more channels, in which a vacuum can be applied to laterally stretch the cell culture channels, flank the cell culture channels horizontally. […]
ASSAY METRIC: Compound Loss Bottom Channel (%)

1. CCN(CC)CC#CCOC(=O)C(O)(c1ccccc1)C1CCCCC1 (stereo not shown) [Oxybutynin] ... 100.0
2. C[C@]12CC[C@H]3[C@@H](CCC4=CC(=O)CC[C@@]43C)[C@@H]1CC[C@@H]2O [Testosterone] ... 35.1
3. CC(C)c1c(C(=O)Nc2ccccc2)c(-c2ccccc2)c(-c2ccc(F)cc2)n1CC[C@@H](O)C[C@@H](O)CC(=O)O [Atorvastatin] ... 7.4
4. O=C1[C@H](CC[C@H](O)c2ccc(F)cc2)[C@@H](c2ccc(O)cc2)N1c1ccc(F)cc1 [Ezetemibe] ... 1.3
